Entry source: ChEMBL document CHEMBL5308504

Assay System: Casein kinase I isoform delta (Homo sapiens) (UniProt P48730)
Sequence (P48730 whole entry, looked up, canonical isoform): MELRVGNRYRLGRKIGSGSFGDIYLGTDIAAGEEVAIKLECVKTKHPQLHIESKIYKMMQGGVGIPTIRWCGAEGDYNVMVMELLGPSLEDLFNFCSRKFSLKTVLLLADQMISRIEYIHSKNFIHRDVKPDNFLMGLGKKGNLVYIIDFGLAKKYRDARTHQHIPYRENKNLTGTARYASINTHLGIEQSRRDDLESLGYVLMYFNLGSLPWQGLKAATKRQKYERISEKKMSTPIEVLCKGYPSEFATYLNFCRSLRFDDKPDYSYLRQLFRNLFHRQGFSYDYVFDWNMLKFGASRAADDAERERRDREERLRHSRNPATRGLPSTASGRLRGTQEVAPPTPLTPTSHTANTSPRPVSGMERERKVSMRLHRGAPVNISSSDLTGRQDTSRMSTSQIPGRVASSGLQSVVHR
Experimental Parameters: Compound concentration 20.0 uM, Protein concentration 2.0 uM, Result type QC Liability
Description: Thermal Shift Assay. Domain: start/stop: M1-K294
Measure: ΔTm (°C)
Numbers only, in °C.

Field: example entries. Status: answers known.
FC(F)c1cncc(-c2ccc3ncc4nnc(C5=CCCOCC5)n4c3c2)c1; 0.33
CC[C@@H](CO)Nc1nc(Nc2cccc(NC(=O)C(C)(C)C)c2)ncc1F; 0.38

For the 3 compounds below, give their ΔTm values.
1. CCCCNc1ncc2c(-c3ccc(CN4CCN(C)CC4)cc3)cn([C@H]3CC[C@H](O)CC3)c2n1
2. CC1(C)Cc2nc(C3CCCC3)c([C@@H](F)c3ccc(C(F)(F)F)cc3)c(C3CCCCC3)c2[C@@H](O)C1
3. CN(C)C/C=C/C(=O)Nc1cc2c(Nc3ccc(F)c(Cl)c3)ncnc2cc1OC[C@@H]1CCCO1

## Output
[2.72, 0.11, 1.15]
